targetSystem: T1, streptavidin (UniProt P22629 37-163, limits assumed)
T1 construct: It was used without a stated label in the sandwich assays; also called SA
T1 sequence (P22629 37-163 limits assumed): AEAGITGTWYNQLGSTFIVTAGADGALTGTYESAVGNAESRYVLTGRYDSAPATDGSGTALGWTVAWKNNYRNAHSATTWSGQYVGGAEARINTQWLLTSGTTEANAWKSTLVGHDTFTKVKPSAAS
testProtocol: sandwich assay: SA in 50% blood serum, biotin-HRP/TMB detection

>  <binder>
3xSP77.6k thin film (3x rcSso7d.SA-PNIPAM conjugate, PNIPAM Mn 77.6 kDa) (designed binder, maleimide end-functionalized PNIPAM (Mn 77.6 kDa) on the N-terminal Cys; film lightly crosslinked with glutaraldehyde) MGSSHHHHHHSSGLVPRGSHMCATVKFTYQGEEKQVDISKIKIVARDGQYIDFKYDEGGGAYGYGWVSEKDAPKELLQMLEKQGGGGSGGGGSMATVKFTYQGEEKQVDISKIKIVARDGQYIDFKYDEGGGAYGYGWVSEKDAPKELLQMLEKQGGGGSGGGGSMATVKFTYQGEEKQVDISKIKIVARDGQYIDFKYDEGGGAYGYGWVSEKDAPKELLQMLEKQGG

>  <unit>
nM

>  <LOD>
85

$$$$
>  <binder>
3xSP9.6k thin film (3x rcSso7d.SA-PNIPAM conjugate, PNIPAM Mn 9.6 kDa) (designed binder, maleimide end-functionalized PNIPAM (Mn 9.6 kDa) on the N-terminal Cys; film lightly crosslinked with glutaraldehyde) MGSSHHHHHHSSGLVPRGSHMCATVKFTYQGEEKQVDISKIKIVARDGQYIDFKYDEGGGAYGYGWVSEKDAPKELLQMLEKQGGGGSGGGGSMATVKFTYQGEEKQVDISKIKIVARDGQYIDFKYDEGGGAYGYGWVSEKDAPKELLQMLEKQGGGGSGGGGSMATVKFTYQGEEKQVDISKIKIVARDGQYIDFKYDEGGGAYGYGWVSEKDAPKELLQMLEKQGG

>  <unit>
nM

>  <LOD>
87

$$$$
>  <binder>
rcSso7d.SA monolayer (designed binder, EDC/NHS-activated protein coupled to an amine-functionalized silicon wafer, also called monomeric rcSso7d.SA; surface-immobilized rcSso7d.SA) MGSIHHHHHHSSGLVPRGSHMCATVKFTYQGEEKQVDISKIKIVARDGQYIDFKYDEGGGAYGYGWVSEKDAPKELLQMLEKQ

>  <unit>
nM

>  <LOD>
40

$$$$
>  <binder>
3xSP30.3k thin film (3x rcSso7d.SA-PNIPAM conjugate, PNIPAM Mn 30.3 kDa) (designed binder, maleimide end-functionalized PNIPAM (Mn 30.3 kDa) on the N-terminal Cys; film lightly crosslinked with glutaraldehyde) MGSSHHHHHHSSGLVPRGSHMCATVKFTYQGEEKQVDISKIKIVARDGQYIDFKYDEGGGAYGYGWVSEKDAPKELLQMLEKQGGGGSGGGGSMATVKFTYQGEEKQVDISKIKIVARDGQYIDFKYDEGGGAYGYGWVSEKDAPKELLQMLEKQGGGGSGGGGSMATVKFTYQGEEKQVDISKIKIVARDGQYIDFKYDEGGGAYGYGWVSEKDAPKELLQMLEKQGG

>  <unit>
nM

>  <LOD>
87

$$$$
